Cited source for all entries: the RNAGym collection of RNA variant scans (doi:10.7554/elife.80360)

# self-cleavage per entry
B1: CPEB3 Ribozyme (parent)
chain: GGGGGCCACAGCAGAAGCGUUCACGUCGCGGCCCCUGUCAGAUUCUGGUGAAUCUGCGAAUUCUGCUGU

Variants of: B1
Test: self-cleavage, relative activity (ratio to wild type); higher = more cleavage; co-transcriptional
Kindly provide the number alone.

{"MUTATION DESCRIPTOR": "G31U A51G", "self-cleavage": 0.636}
{"MUTATION DESCRIPTOR": "G1U A59C", "self-cleavage": 0.0892}
{"MUTATION DESCRIPTOR": "A15G", "self-cleavage": 1}

The variant listed as U49A C63G has a reported self-cleavage of 0.878

The variant listed as G19A A40C has a reported self-cleavage of 0.123

The variant listed as U44G G68A has a reported self-cleavage of 0.942

The variant listed as C32U G41A has a reported self-cleavage of 0.845

The variant listed as C12A U20G has a reported self-cleavage of 0.18
